Where do the numbers come from? From ChEMBL document CHEMBL3885881.

Measured ASPARTATE AMINOTRANSFERASE, listed per entry for reference.
Organism: Rattus norvegicus
Test: DrugMatrix - Regimen: Daily Repeat
Format: toxicity, organism-based, Sprague-Dawley
Set-up: regimen Daily Repeat, gender Male, age 6-8 weeks
Settings: in vivo, po, 0 mg/kg, 120 h, tissue Plasma, route oral GAVAGE, dose level Control, time 5 day, vehicle 100 % WATER
measured endpoint: ASPARTATE AMINOTRANSFERASE (u/L)

compound | result number
CC(CCc1ccccc1)NCC(O)c1ccc(O)c(C(N)=O)c1 (stereo not given) [LABETALOL] | 92.5
Cc1cc(NS(=O)(=O)c2ccc(N)cc2)no1 [SULFAMETHOXAZOLE] | 91.33
CNCCC=C1c2ccccc2CCc2ccccc21 [NORTRIPTYLINE] | 86
C[C@]12Cc3c[nH]nc3C[C@@H]1CC[C@@H]1[C@@H]2CC[C@@]2(C)[C@H]1CC[C@]2(C)O [STANOZOLOL] | 80.83
CC1(C)S[C@@H]2[C@H](NC(=O)[C@H](N)c3ccc(O)cc3)C(=O)N2[C@H]1C(=O)O [AMOXICILLIN] | 77.5
NCC1(CC(=O)O)CCCCC1 [GABAPENTIN] | 81.33
CC1COc2c(N3CCN(C)CC3)c(F)cc3c(=O)c(C(=O)O)cn1c23 (stereo not given) [OFLOXACIN] | 99.5
Nc1ccc(S(=O)(=O)Nc2ccnn2-c2ccccc2)cc1 [SULFAPHENAZOLE] | 89.83
CN1CCC[C@H]1c1cccnc1 [NICOTINE] | 99.5
Cn1cnc([N+](=O)[O-])c1Sc1ncnc2nc[nH]c12 [AZATHIOPRINE] | 83.17

###

Measured CHLORIDE, listed per entry for reference.
Organism: Rattus norvegicus
Assay: DrugMatrix - Regimen: Daily Repeat
Assay type: toxicity, organism-based, Sprague-Dawley
Set-up: regimen Daily Repeat, gender Male, age 6-8 weeks
Settings: in vivo, po, 2000 mg/kg, 72 h, tissue Plasma, route oral GAVAGE, dose level High, time 3 day, vehicle .5 % CMC

molecule | measurement unit | CHLORIDE
NCC(=O)O | MEQ/L | 100.33
NCCCC[C@H](N[C@@H](CCc1ccccc1)C(=O)O)C(=O)N1CCC[C@H]1C(=O)O [LISINOPRIL ANHYDROUS] | MEQ/L | 101.33
CC(C)[C@H](N)C(=O)OCCOCn1cnc2c(=O)[nH]c(N)nc21 | MEQ/L | 101
CC(=O)O[C@]1(C(C)=O)CC[C@H]2[C@@H]3C=C(Cl)C4=CC(=O)CC[C@]4(C)[C@H]3CC[C@@]21C [CHLORMADINONE ACETATE] | MEQ/L | 99

###

Organism: Rattus norvegicus
Experiment: DrugMatrix - Regimen: Daily Repeat
Assay type: toxicity, organism-based, Sprague-Dawley
Parameters: regimen Daily Repeat, gender Male, age 6-8 weeks
Conditions: in vivo, po, 0 mg/kg, 120 h, tissue Plasma, route oral GAVAGE, dose level Control, time 5 day, vehicle .5 % CMC
# if value of POTASSIUM reaches 6 MEQ/L, tag Fulfilled; if it stays below, tag Not fulfilled

molecule | classification
CCc1ccc(C(=O)C(C)CN2CCCCC2)cc1 (stereo unspecified) | Fulfilled
COC(=O)c1ccc(O)cc1 | Fulfilled
COc1c(C)c2c(c(O)c1C/C=C(\C)CCC(=O)OCCN1CCOCC1)C(=O)OC2 [MYCOPHENOLATE MOFETIL] | Not fulfilled

###

Species: Rattus norvegicus
Assay: DrugMatrix - Regimen: Daily Repeat
Assay type: toxicity, organism-based, Sprague-Dawley
Design: regimen Daily Repeat, gender Male, age 6-8 weeks
Settings: in vivo, po, 0 mg/kg, […], tissue Blood, route oral GAVAGE, dose level Control, time 14 day

smi | measurement unit | ABSOLUTE EOSINOPHIL
C=CCN | cells/µL | 60

###

Species on record: Rattus norvegicus
Assay: DrugMatrix - Regimen: Daily Repeat
Format: toxicity, organism-based, Sprague-Dawley
Parameters: regimen Daily Repeat, gender Male, age 6-8 weeks
Conditions: in vivo, po, 0 mg/kg, 2184 h, tissue Blood, route oral GAVAGE, dose level Control, time 91 day, vehicle .5 % CMC

compound | measurement unit | ABSOLUTE SEGMENTED NEUTROPHIL
O=c1cc(-c2ccccc2)oc2c1ccc1ccccc12 [ALPHA-NAPHTHOFLAVONE] | cells/µL | 1530

###

Species on record: Rattus norvegicus
Experiment: DrugMatrix - Regimen: Daily Repeat
Type: toxicity, organism-based, Sprague-Dawley
Design: regimen Daily Repeat, gender Male, age 6-8 weeks
Conditions: in vivo, po, 0 mg/kg, 72 h, tissue Plasma, route oral GAVAGE, dose level Control, time 3 day, vehicle 100 % WATER
Measured TOTAL BILIRUBIN, listed per entry for reference.
measured endpoint: TOTAL BILIRUBIN (mg/dL)

compound | result number
Fc1ccc([C@@H]2CCNC[C@H]2COc2ccc3c(c2)OCO3)cc1 | 0.18
Clc1ccc(C(c2ccccc2Cl)C(Cl)Cl)cc1 (centres undefined) | 0.17
C[C@]12Cc3c[nH]nc3C[C@@H]1CC[C@@H]1[C@@H]2CC[C@@]2(C)[C@H]1CC[C@]2(C)O | 0.18
CC(C)(S)[C@@H](N)C(=O)O | 0.18
CC1(C)S[C@@H]2[C@H](NC(=O)[C@H](N)c3ccc(O)cc3)C(=O)N2[C@H]1C(=O)O | 0.18
Cn1cnc([N+](=O)[O-])c1Sc1ncnc2nc[nH]c12 | 0.17
CC(CCc1ccccc1)NCC(O)c1ccc(O)c(C(N)=O)c1 (centres undefined) | 0.22
CN1CCN(C(=O)OC2c3nccnc3C(=O)N2c2ccc(Cl)cn2)CC1 (centres undefined) | 0.15
COc1ccc(C(CN(C)C)C2(O)CCCCC2)cc1 (centres undefined) | 0.22

###

Species on record: Rattus norvegicus
Assay: DrugMatrix - Regimen: Daily Repeat
Type: toxicity, organism-based, Sprague-Dawley
Design: regimen Daily Repeat, gender Male, age 6-8 weeks
Settings: in vivo, iv, 0 mg/kg, 72 h, tissue Blood, dose level Control, time 3 day, vehicle 100 % SALINE
measured endpoint: ABSOLUTE LYMPHOCYTE (CELLS/uL)

smi | measurement unit | result number
NCC[C@H](O)C(=O)N[C@@H]1C[C@H](N)[C@@H](O[C@H]2O[C@H](CN)[C@@H](O)[C@H](O)[C@H]2O)[C@H](O)[C@H]1O[C@H]1O[C@H](CO)[C@@H](O)[C@H](N)[C@H]1O | CELLS/uL | 7637.67
CN(N=O)C(=O)N[C@@H](C=O)[C@@H](O)[C@H](O)[C@H](O)CO | CELLS/uL | 13190.83
CC1(C)S[C@@H]2[C@H](NC(=O)[C@H](NC(=O)N3CCNC3=O)c3ccccc3)C(=O)N2[C@H]1C(=O)O | CELLS/uL | 9513.5
CC[C@@]1(O)C(=O)OCc2c1cc1n(c2=O)Cc2cc3ccccc3nc2-1 | CELLS/uL | 10193.67

###

Measured CARBON DIOXIDE, listed per entry for reference.
Organism: Rattus norvegicus
Experiment: DrugMatrix - Regimen: Daily Repeat
Assay type: toxicity, organism-based, Sprague-Dawley
Set-up: regimen Daily Repeat, gender Male, age 6-8 weeks
Conditions: in vivo, iv, 0 mg/kg, 72 h, tissue Plasma, dose level Control, time 3 day, vehicle 100 % SALINE
measured endpoint: CARBON DIOXIDE (mmol/L)

smi | result number
CC1(C)S[C@@H]2[C@H](NC(=O)[C@H](NC(=O)N3CCNC3=O)c3ccccc3)C(=O)N2[C@H]1C(=O)O | 29.33
CC[C@@]1(O)C(=O)OCc2c1cc1n(c2=O)Cc2cc3ccccc3nc2-1 | 30.33
NCC[C@H](O)C(=O)N[C@@H]1C[C@H](N)[C@@H](O[C@H]2O[C@H](CN)[C@@H](O)[C@H](O)[C@H]2O)[C@H](O)[C@H]1O[C@H]1O[C@H](CO)[C@@H](O)[C@H](N)[C@H]1O | 34.5
CN(N=O)C(=O)N[C@@H](C=O)[C@@H](O)[C@H](O)[C@H](O)CO | 27.5

###

Species on record: Rattus norvegicus
Experiment: DrugMatrix - Regimen: Daily Repeat
Assay type: toxicity, organism-based, Sprague-Dawley
Parameters: regimen Daily Repeat, gender Male, age 6-8 weeks
Settings: in vivo, po, 0 mg/kg, 72 h, tissue Blood, route oral GAVAGE, dose level Control, time 3 day, vehicle 100 % WATER
measured endpoint: BASOPHIL (%)

compound | result number
Nc1ccc(S(=O)(=O)Nc2ccnn2-c2ccccc2)cc1 | 0
NCC1(CC(=O)O)CCCCC1 | 0
CC(C)(S)[C@@H](N)C(=O)O | 0
O=C1NC(=O)C(c2ccccc2)(c2ccccc2)N1 | 0
CC(CCc1ccccc1)NCC(O)c1ccc(O)c(C(N)=O)c1 (stereo not drawn) | 0
Clc1ccc(C(c2ccccc2Cl)C(Cl)Cl)cc1 (stereo not drawn) | 0
NC(=O)c1ncn([C@@H]2O[C@H](CO)[C@@H](O)[C@H]2O)n1 | 0
CC1(C)S[C@@H]2[C@H](NC(=O)[C@H](N)c3ccc(O)cc3)C(=O)N2[C@H]1C(=O)O | 0
C[C@]12Cc3c[nH]nc3C[C@@H]1CC[C@@H]1[C@@H]2CC[C@@]2(C)[C@H]1CC[C@]2(C)O | 0
CN1CCC[C@H]1c1cccnc1 | 0
COc1cccc(C2(O)CCCCC2CN(C)C)c1 (stereo not drawn) | 0
CN1CCN(C(=O)OC2c3nccnc3C(=O)N2c2ccc(Cl)cn2)CC1 (stereo not drawn) | 0
NNC(=O)c1ccncc1 | 0
COc1ccc(C(CN(C)C)C2(O)CCCCC2)cc1 (stereo not drawn) | 0
Cc1cc(NS(=O)(=O)c2ccc(N)cc2)no1 | 0
Fc1ccc([C@@H]2CCNC[C@H]2COc2ccc3c(c2)OCO3)cc1 | 0
CC1COc2c(N3CCN(C)CC3)c(F)cc3c(=O)c(C(=O)O)cn1c23 (stereo not drawn) | 0
CNCCC=C1c2ccccc2CCc2ccccc21 | 0
